molecular target: KDM4C (Homo sapiens, UniProt Q9H3R0); construct: N-terminal GST-tagged KDM4C^2-372 was purchased from BPS Biosciences; GST (N); purchased BPS Biosciences; experiment: KDM4C Assay (SAMDI mass spectrometry demethylase assay); format: biochemical; conditions: N-terminal GST-tagged KDM4C 2-372; class symbols; read-out: 4C IC50
Sequence (Q9H3R0 2-372): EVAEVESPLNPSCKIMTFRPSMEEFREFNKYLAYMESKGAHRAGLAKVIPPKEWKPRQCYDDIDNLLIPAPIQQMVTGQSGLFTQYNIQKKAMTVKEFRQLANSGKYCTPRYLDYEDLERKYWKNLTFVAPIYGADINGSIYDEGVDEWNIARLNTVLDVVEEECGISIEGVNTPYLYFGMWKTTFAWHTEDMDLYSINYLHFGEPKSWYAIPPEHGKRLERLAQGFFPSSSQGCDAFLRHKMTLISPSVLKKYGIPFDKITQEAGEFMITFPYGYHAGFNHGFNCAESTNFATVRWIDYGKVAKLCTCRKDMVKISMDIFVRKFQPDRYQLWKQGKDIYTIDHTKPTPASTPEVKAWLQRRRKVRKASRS
METRIC NAME: IC50

O=C(O)c1ccncc1Nc1cc(-c2ccccc2)nn1-c1ccncc1: 100 to 1000 nM
Cc1nn(-c2ccccc2C#N)cc1Nc1cnccc1C(=O)O: 1000 to 10000 nM
Cc1c(Nc2cnccc2C(=O)O)cnn1C1CCN(C(C)C)CC1: 100 to 1000 nM
Cc1cn(Cc2ccccc2)nc1Nc1cnccc1C(=O)O: 100 to 1000 nM

// moving on: another record for IC50
Can you look up IC50 on KDM4C (Homo sapiens, UniProt Q9H3R0) for "Cc1nn(C2CCNCC2)cc1Nc1cnccc1C(=O)O" ?
1000 to 10000 nM

* * *

Consider the following compounds; for each one, report its pIC50.
molecular target: KDM5A (Homo sapiens); construct: C-terminal FLAG-tagged KDM5A^1-1090 was purchased from BPS Biosciences; FLAG (C); purchased BPS Biosciences; assay: KDM5A Assay (SAMDI mass spectrometry demethylase assay); type: biochemical; details: C-terminal FLAG-tagged KDM5A 1-1090; class symbols; read-out: 5A IC50
Sequence (P29375 1-1090): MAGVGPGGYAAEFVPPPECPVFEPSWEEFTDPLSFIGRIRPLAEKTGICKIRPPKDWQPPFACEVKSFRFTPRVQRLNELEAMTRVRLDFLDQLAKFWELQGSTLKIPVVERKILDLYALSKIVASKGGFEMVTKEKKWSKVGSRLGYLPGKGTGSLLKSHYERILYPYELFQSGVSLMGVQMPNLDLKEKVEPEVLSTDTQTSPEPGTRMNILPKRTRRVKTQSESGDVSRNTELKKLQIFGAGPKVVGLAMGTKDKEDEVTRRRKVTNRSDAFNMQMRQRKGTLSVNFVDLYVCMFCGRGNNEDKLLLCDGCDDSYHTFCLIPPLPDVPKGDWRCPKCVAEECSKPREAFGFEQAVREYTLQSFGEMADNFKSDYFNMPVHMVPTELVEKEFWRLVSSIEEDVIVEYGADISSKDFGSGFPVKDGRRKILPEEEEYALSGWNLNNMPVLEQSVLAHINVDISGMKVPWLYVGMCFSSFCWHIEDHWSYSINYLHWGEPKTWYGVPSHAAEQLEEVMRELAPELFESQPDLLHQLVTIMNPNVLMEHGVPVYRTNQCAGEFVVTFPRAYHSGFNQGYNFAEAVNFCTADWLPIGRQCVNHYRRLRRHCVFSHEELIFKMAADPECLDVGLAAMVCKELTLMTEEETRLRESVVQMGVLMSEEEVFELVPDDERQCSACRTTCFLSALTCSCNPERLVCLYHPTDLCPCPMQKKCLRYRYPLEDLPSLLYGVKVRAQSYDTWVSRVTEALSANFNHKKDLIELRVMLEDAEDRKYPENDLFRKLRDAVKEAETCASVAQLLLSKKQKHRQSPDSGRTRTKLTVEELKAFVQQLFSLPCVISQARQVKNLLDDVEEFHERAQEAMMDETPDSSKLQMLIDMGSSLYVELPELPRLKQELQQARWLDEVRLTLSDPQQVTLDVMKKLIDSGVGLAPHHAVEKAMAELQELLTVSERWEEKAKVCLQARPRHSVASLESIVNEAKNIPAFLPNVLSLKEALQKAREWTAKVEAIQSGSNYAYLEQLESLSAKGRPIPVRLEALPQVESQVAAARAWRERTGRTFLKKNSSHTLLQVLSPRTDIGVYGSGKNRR
pIC50: −log10 of the molar value.

Cc1nn([C@@H]2CNC[C@@H]2C)cc1Nc1cnccc1C(=O)O (single isomer, unassigned): 6.00 to 7.00
Cc1c(Nc2cnccc2C(=O)O)cnn1CCN(C)C: 5.00 to 6.00
O=C(O)c1ccncc1Nc1cnn(CCN2CCC(F)(F)CC2)c1-c1ccccc1: 5.00 to 6.00
Cc1cc(Nc2cnccc2C(=O)O)n(C2CCOCC2)n1: 5.00 to 6.00
Cc1nn(C2CCCN(C3CCC3)CC2)cc1Nc1cnccc1C(=O)O (single isomer, unassigned) [Compound 118]: 6.00 to 7.00

// batch mode: one pIC50 value per listed entry
1. O=C(O)c1ccncc1Nc1cn(-c2ccccc2)nc1-c1ccccc1
2. CNC(=O)c1ccc(-n2ncc(Nc3cnccc3C(=O)O)c2C)cc1
3. COc1ccc(-n2nc(C)c(Nc3cnccc3C(=O)O)c2C)cc1
4. Cc1c(-c2ccccc2)nn(C)c1Nc1cnccc1C(=O)O

1: 5.00 to 6.00; 2: 5.00 to 6.00; 3: 4.00 to 5.00; 4: 5.00 to 6.00

* * *

Consider the following molecules; for each one, report its pIC50.
biological target: KDM5A (Homo sapiens); construct: C-terminal FLAG-tagged KDM5A^1-1090 was purchased from BPS Biosciences; FLAG (C); purchased BPS Biosciences; experiment: KDM5A Assay (SAMDI mass spectrometry demethylase assay); format: biochemical; conditions: C-terminal FLAG-tagged KDM5A 1-1090; numeric bound; read-out: 5A IC50
pIC50: −log10 of the molar value.

Cc1nn([C@H]2CCN(C)C2)cc1Nc1cnccc1C(=O)NCCO [Compound 121]: < 4.00

// returns reported pIC50 for input Cn1ncc(-c2cccnc2)c1Nc1cnccc1C(=O)O [Compound 4]
< 4.00

* * *

Target: KDM4A (Homo sapiens)
Construct: N-terminal His-tagged KDM4A^1-350 was purchased from BPS Biosciences; His (N); purchased BPS Biosciences
Sequence (O75164 1-350): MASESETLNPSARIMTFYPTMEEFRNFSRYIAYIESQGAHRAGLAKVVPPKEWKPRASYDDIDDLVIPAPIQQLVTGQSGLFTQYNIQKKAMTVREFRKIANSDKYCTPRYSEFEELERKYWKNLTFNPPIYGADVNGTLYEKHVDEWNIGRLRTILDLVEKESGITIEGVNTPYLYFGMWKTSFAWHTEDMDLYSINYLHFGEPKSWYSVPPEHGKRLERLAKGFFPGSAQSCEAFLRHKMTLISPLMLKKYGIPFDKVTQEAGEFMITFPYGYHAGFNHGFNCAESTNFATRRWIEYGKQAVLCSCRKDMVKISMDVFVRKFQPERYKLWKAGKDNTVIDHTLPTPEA
Test: KDM4A Assay (SAMDI mass spectrometry demethylase assay)
Format: biochemical
Settings: N-terminal His-tagged KDM4A 1-350; class symbols; read-out: 4A IC50
Procedure: N-terminal His-tagged KDM4A^1-350 was purchased from BPS Biosciences. Peptides were synthesized by BioPeptide and all other reagents were purchased from Sigma-Aldrich at the highest level of purity possible. Assays were performed in a 50 μL volume in 384-well V-bottom polypropylene microplates (Greiner) at 25° C. […] Reactions proceeded for 120 minutes and were stopped by the addition of 5 μL of formic acid (f.c.=0.5%) using a Multidrop Combi and then analyzed by SAMDI Tech Inc. […]
METRIC NAME: IC50

Consider the following illustrative entries.
COC(=O)c1ccncc1Nc1cn(C2CCN(C3CCC3)CC2)nc1C: 10000 to 100000 nM
Cc1c(Nc2cnccc2C(=O)O)cnn1C1CCN(CC(F)(F)F)CC1: 100 to 1000 nM
Cc1c(Nc2cnccc2C(=O)O)cnn1C1CCN(C2CCC2)CC1: 1 to 100 nM
Cc1nn(-c2ccccc2C#N)cc1Nc1cnccc1C(=O)O: 100 to 1000 nM
O=C(O)c1ccncc1Nc1cc(-c2cccc(Cl)c2)n(C2CCC3(CC2)OCCO3)n1: 100 to 1000 nM
Cc1cc(Nc2cnccc2C(=O)O)nn1-c1ccccc1: 100 to 1000 nM
Cc1nn(C2CCCN(C)CC2)cc1Nc1cnccc1C(=O)O (centres unmarked): 100 to 1000 nM
COCCn1nc(-c2ccccc2)cc1Nc1cnccc1C(=O)O: 100 to 1000 nM

// batch mode: one IC50 value per listed entry
1. CCn1nc(-c2ccccc2)cc1Nc1cnccc1C(=O)O
2. CN(C)CCCn1cc(-c2ccccc2)c(Nc2cnccc2C(=O)O)n1
3. Cc1cc(Nc2cnccc2C(=O)O)n(C2CCOCC2)n1

["100 to 1000 nM", "1 to 100 nM", "100 to 1000 nM"]

// batch mode: one IC50 value per listed entry
1. Cc1nn(-c2ccccc2)c(C)c1Nc1cnccc1C(=O)O
2. COC(=O)c1ccncc1Nc1cnn(C2CCN(C3CCC3)CC2)c1C

1: 1 to 100 nM; 2: 10000 to 100000 nM

// batch mode: one IC50 value per listed entry
1. Cc1nn([C@H]2CC[C@@H](N)CC2)cc1Nc1cnccc1C(=O)O
2. Cc1c(Nc2cnccc2C(=O)O)cnn1C1CCN(CC2CC2)CC1
3. Cc1c(Nc2cnccc2C(=O)O)cnn1C1CCN(C(C)C)CC1
4. Cn1ncc(-c2ccccc2)c1Nc1cnccc1C(=O)O
5. Cn1nc(-c2ccc(Cl)cc2)cc1Nc1cnccc1C(=O)O
6. O=C(O)c1ccncc1Nc1cc(-c2ccccc2)nn1-c1ccncc1
7. O=C(O)c1ccncc1Nc1cc(-c2ccccc2)nn1-c1ccccc1

["100 to 1000 nM", "100 to 1000 nM", "100 to 1000 nM", "100 to 1000 nM", "100 to 1000 nM", "100 to 1000 nM", "1000 to 10000 nM"]

// batch mode: one IC50 value per listed entry
1. Cc1c(Nc2cnccc2C(=O)O)cnn1[C@H]1CC[C@@H](N)CC1
2. Cc1cn(-c2ccccc2)nc1Nc1cnccc1C(=O)O
3. Cc1n[nH]c(C)c1Nc1cnccc1C(=O)O
4. Cc1nn(-c2ccccc2)cc1Nc1cnccc1C(=O)O
5. N[C@H]1CC[C@H](n2nc(-c3ccccc3)cc2Nc2cnccc2C(=O)O)CC1
6. Cn1ncc(-c2cccc(F)c2)c1Nc1cnccc1C(=O)O
7. O=C(O)c1ccncc1Nc1nn(CCN2CCC(F)(F)CC2)cc1-c1ccc(F)cc1

["1 to 100 nM", "1 to 100 nM", "1000 to 10000 nM", "1 to 100 nM", "10000 to 100000 nM", "1000 to 10000 nM", "100 to 1000 nM"]

// batch mode: one IC50 value per listed entry
1. CN(C)CCCn1ncc(-c2ccccc2)c1Nc1cnccc1C(=O)O
2. CC(C)n1nc(-c2ccccc2)cc1Nc1cnccc1C(=O)O

1. 1000 to 10000 nM
2. 100 to 1000 nM

// batch mode: one IC50 value per listed entry
1. Cc1nn(C2CCN(CC(F)(F)F)CC2)cc1Nc1cnccc1C(=O)O
2. Cc1ccc(-n2cc(Nc3cnccc3C(=O)O)c(C)n2)cc1

1: 100 to 1000 nM; 2: 1 to 100 nM

// batch mode: one IC50 value per listed entry
1. CCc1c(Nc2cnccc2C(=O)O)cnn1-c1ccccc1
2. NC1CCC(n2nc(Nc3cnccc3C(=O)O)cc2-c2cccc(Cl)c2)CC1 (centres unmarked)
3. Cc1nn(-c2ccc(O)cc2)c(C)c1Nc1cnccc1C(=O)O
4. COc1ccccc1-n1cc(C)c(Nc2cnccc2C(=O)O)n1
5. O=C(O)c1ccncc1Nc1nn(CCN2CCC(F)(F)CC2)cc1-c1ccccc1
6. CN(C)CCn1ncc(-c2ccccc2)c1Nc1cnccc1C(=O)O
7. Cc1nn(CCN(C)C)cc1Nc1cnccc1C(=O)O

1. 1 to 100 nM
2. 10000 to 100000 nM
3. 100 to 1000 nM
4. 100 to 1000 nM
5. 100 to 1000 nM
6. 1000 to 10000 nM
7. 100 to 1000 nM
